Sourced from patent US20250214969A1

# Measured Target: truncated His-MBP-Tev-KLHDC2 (residues 1-363) (Homo sapiens)
# Construct: truncated His -MBP-Tev-KLHDC2 (residues 1-363) purified from E. coli; made in house; host or cells: E. coli
# Sequence (Q9Y2U9 1-363): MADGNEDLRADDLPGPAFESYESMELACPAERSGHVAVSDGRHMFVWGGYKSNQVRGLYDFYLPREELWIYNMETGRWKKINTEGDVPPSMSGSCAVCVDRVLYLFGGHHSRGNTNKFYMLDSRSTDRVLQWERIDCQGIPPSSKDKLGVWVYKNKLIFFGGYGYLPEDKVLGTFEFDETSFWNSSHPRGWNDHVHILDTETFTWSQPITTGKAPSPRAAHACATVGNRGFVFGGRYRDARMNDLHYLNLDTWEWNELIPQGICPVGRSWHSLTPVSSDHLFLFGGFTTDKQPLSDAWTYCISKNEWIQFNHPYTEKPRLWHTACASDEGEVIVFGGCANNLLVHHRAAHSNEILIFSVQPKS
# Test Protocol: KLHDC2 FP competition binding assay
# Applied Conditions: 15 nM KLHDC2 (residues 1-363), 10 nM fluorescein-labeled diglycine peptide probe, read-out: KLHDC2 binding Human FP: average external IC50
pIC50: −log10 of the molar value.
Metric Name: pIC50

Q. Look up pIC50 with truncated His-MBP-Tev-KLHDC2 (residues 1-363) (Homo sapiens) for this compound: `O=C(O)Cn1cc(NC(=O)[C@H]2C[C@H](C(F)(F)F)CN(c3cccnc3)C2)ccc1=O`
A. 5.30 to 6.30

Q. Now the compound `O=C(O)Cn1cc(NC(=O)c2cccc(-c3cccnc3)c2)c(Cl)cc1=O`
A. 5.30 to 6.30

Q. Now the compound `CC(C)Cn1cnc2c(C(=O)Nc3ccc(=O)n(CC(=O)O)c3)cccc21`
A. < 5.30

Q. Now the compound `O=C(O)Cn1cc(CC(=O)N2CCc3ccccc32)ccc1=O`
A. < 5.30

Q. Now the compound `O=C(O)Cn1cc(NC(=O)[C@H]2CN(c3cccnc3)Cc3ccccc32)ccc1=O`
A. < 5.30

Q. Now the compound `O=C(O)Cn1cc(-c2cc(F)cc(F)c2)ccc1=O`
A. < 5.30

Others:
Q. Look up pIC50 with truncated His-MBP-Tev-KLHDC2 (residues 1-363) (Homo sapiens) for this compound: `Cn1ccc2cccc(-c3ccc(=O)n(CC(=O)O)c3)c21`
A. < 5.30
